# Assay details: Tumor homogenate activation efficiency, sarcoma tissue (Examples 28, 37)
# Format: in vitro ADME
# Setup conditions: pH 5.0, 37° C., 2 h; Table 5
# Description: Buffer preparation: 50 mM PH buffer (MES), 250 mM NaCl, pH adjusted to 5.0 with 0.5 M of sodium hydroxide. The polypeptide conjugate was prepared into a 1 mg/ml solution with pH 5.0 buffer, 100 μg of tumor tissue homogenate was added, (the tumor tissue homogenate was the homogenate of tumor tissues prepared with a Jingxin F6/10 handheld homogenizer), and the solution was placed at 37° C. for 2 h. […]
Where a SMILES comes first, the peptide text is derived from it. The star is where a group is joined. NEt(2-(20S-CPT-7-yl)ethyl) = CCN(CCc1c2c(nc3ccccc13)-c1cc3c(c(=O)n1C2)COC(=O)[C@]3(O)CC)*; X8 = CC[C@@]1(O)C(=O)OCc2c1cc1n(c2=O)Cc2c-1nc1ccccc1c2CCN(C1CCCC1)*; X1 = CC[C@@]1(O)C(=O)OCc2c1cc1n(c2=O)Cc2c-1nc1ccccc1c2CCN(C1CCC1)*; X3 = CC[C@@]1(O)C(=O)OCc2c1cc1n(c2=O)Cc2c-1nc1ccccc1c2CCN(C1CC1)*; X7 = CC[C@@]1(O)C(=O)OCc2c1cc1n(c2=O)Cc2c-1nc1ccccc1c2CCN(C)*; Propanoyl(3-maleimido) = O=C1C=CC(=O)N1CCC(=O)*; PEG6 = NCCOCCOCCOCCOCCOCCOCCC(=O)O
// values below are reported Percentage of release efficiency (%) Sarcoma tissue (SJSA1)
Report as a plain number; the unit % is understood.

Compound: CC[C@@]1(O)C(=O)OCC2=C1C=C1c3nc4ccccc4c(CCN(C(=O)OCc4ccc(NC(=O)[C@H](CC(N)=O)NC(=O)[C@H](C)NC(=O)[C@H](C)NC(=O)CCOCCOCCOCCOCCOCCOCCNC(=O)CCN5C(=O)C=CC5=O)cc4)C(C)C)c3CN1C2
Measurement unit: %
Measured number: 78.5

q: Recorded Percentage of release efficiency (%) Sarcoma tissue (SJSA1) for CCN(CCc1c2c(nc3ccccc13)-c1cc3c(c(=O)n1C2)COC(=O)[C@]3(O)CC)C(=O)CNC(=O)[C@H](CC(N)=O)NC(=O)[C@H](C)NC(=O)CNC(=O)CCOCCOCCOCCOCCOCCOCCNC(=O)CCN1C(=O)C=CC1=O [MI-6PEG-GANG-D2] ({Propanoyl(3-maleimido)-PEG6}-GANG-{NEt(2-(20S-CPT-7-yl)ethyl)}) , please?
a: 88.4

q: Follow-up item: CC[C@@]1(O)C(=O)OCc2c1cc1n(c2=O)Cc2c-1nc1ccccc1c2CCN(C(=O)CNC(=O)[C@H](CC(N)=O)NC(=O)[C@H](C)NC(=O)[C@H](C)NC(=O)CCOCCOCCOCCOCCOCCOCCNC(=O)CCN1C(=O)C=CC1=O)C1CCC1 [MI-6PEG-AANG-D7] ({Propanoyl(3-maleimido)-PEG6}-AANG-X1)
a: 64.3

q: Also check CC[C@@]1(O)C(=O)OCc2c1cc1n(c2=O)Cc2c-1nc1ccccc1c2CCN(C)C(=O)CNC(=O)[C@H](Cc1ccccc1)NC(=O)CNC(=O)CNC(=O)CCOCCOCCOCCOCCOCCOCCNC(=O)CCN1C(=O)C=CC1=O [MI-6PEG-GGFG-D1] ({Propanoyl(3-maleimido)-PEG6}-GGFG-X7)
a: 81.5

q: Now consider CC[C@@]1(O)C(=O)OCc2c1cc1n(c2=O)Cc2c-1nc1ccccc1c2CCN(C(=O)CNC(=O)[C@H](Cc1ccccc1)NC(=O)CNC(=O)CNC(=O)CCOCCOCCOCCOCCOCCOCCNC(=O)CCN1C(=O)C=CC1=O)C1CCC1 [MI-6PEG-GGFG-D7] ({Propanoyl(3-maleimido)-PEG6}-GGFG-X1) .
a: 69.7

q: Cool, now CC[C@@]1(O)C(=O)OCc2c1cc1n(c2=O)Cc2c-1nc1ccccc1c2CCN(C(=O)CNC(=O)[C@H](Cc1ccccc1)NC(=O)CNC(=O)CNC(=O)CCOCCOCCOCCOCCOCCOCCNC(=O)CCN1C(=O)C=CC1=O)C1CCCC1 [MI-6PEG-GGFG-D8] ({Propanoyl(3-maleimido)-PEG6}-GGFG-X8)
a: 72.7

q: Try this compound next: CC[C@@]1(O)C(=O)OCc2c1cc1n(c2=O)Cc2c-1nc1ccccc1c2CCN(C(=O)CNC(=O)[C@H](Cc1ccccc1)NC(=O)CNC(=O)CNC(=O)CCOCCOCCOCCOCCOCCOCCNC(=O)CCN1C(=O)C=CC1=O)C1CC1 [MI-6PEG-GGFG-D6] ({Propanoyl(3-maleimido)-PEG6}-GGFG-X3)
a: 80.7

----------
# Tested on: colo320 colorectal cancer tumor model
# Setup conditions: 5 mg/kg once a week for four weeks; Table 3
Below is a list of entries, each paired with its recorded Mouse weight (%) value.
Expressed in %, but write only the number.

Study these solved cases before continuing.
Compound: CCNCCc1c2c(nc3ccccc13)-c1cc3c(c(=O)n1C2)COC(=O)[C@]3(O)CC [D2]
Measured target: colo320 colorectal cancer tumor model
Measured number: −7
//
Compound: CC[C@@]1(O)C(=O)OCc2c1cc1n(c2=O)Cc2c-1nc1ccccc1c2CCNC [D1]
Measured target: colo320 colorectal cancer tumor model
Measured number: −7
//
Compound: CC[C@@]1(O)C(=O)OCc2c1cc1n(c2=O)Cc2c-1nc1ccccc1c2CCNC1CCCC1 [D8]
Measured target: colo320 colorectal cancer tumor model
Measured number: −6
//
Compound: CC[C@@]1(O)C(=O)OCc2c1cc1n(c2=O)Cc2c-1nc1ccccc1c2CCNC1CC1 [D6]
Measured target: colo320 colorectal cancer tumor model
Measured number: −4

q: Fill blank: measured Mouse weight (%) of the compound CC[C@@]1(O)C(=O)OCc2c1cc1n(c2=O)Cc2c-1nc1ccccc1c2CCNC1CCC1 [D7] is ____.
a: −8

q: And for CC[C@@]1(O)C(=O)OCc2c1cc1n(c2=O)Cc2c-1nc1ccccc1c2CCNC(C)C [Belotecan, reference compound] ?
a: −9

----------
# Assay details: MTD determination in mice (Examples 27, 36, 44)
# Format: in vivo
# Setup conditions: female, mouse, in vivo; mice, monitored for 14 d; Table 9
Where a SMILES comes first, the peptide text is derived from it. The star is where a group is joined. Belotecan = CC[C@@]1(O)C(=O)OCc2c1cc1n(c2=O)Cc2c-1nc1ccccc1c2CCN(C(C)C)*; X7 = CC[C@@]1(O)C(=O)OCc2c1cc1n(c2=O)Cc2c-1nc1ccccc1c2CCN(C)*; Propanoyl(3-maleimido) = O=C1C=CC(=O)N1CCC(=O)*; PEG6 = NCCOCCOCCOCCOCCOCCOCCC(=O)O
MTD at 14 d values, listed per item
Report as: number unit

q: Reported MTD at 14 d, molecule CC[C@@]1(O)C(=O)OCc2c1cc1n(c2=O)Cc2c-1nc1ccccc1c2CCN(C(=O)[C@H](CC(C)C)NC(=O)[C@H](CC(N)=O)NC(=O)[C@H](C)NC(=O)[C@H](C)NC(=O)CCOCCOCCOCCOCCOCCOCCNC(=O)CCN1C(=O)C=CC1=O)C(C)C [MI-6PEG-AANL-Belotecan] ({Propanoyl(3-maleimido)-PEG6}-AANL-Belotecan) : ____
a: 150 mg/kg

q: Would you kindly repeat that for CC[C@@]1(O)C(=O)OCc2c1cc1n(c2=O)Cc2c-1nc1ccccc1c2CCN(C(=O)[C@H](CC(C)C)NC(=O)[C@H](Cc1ccccc1)NC(=O)CNC(=O)CNC(=O)CCOCCOCCOCCOCCOCCOCCNC(=O)CCN1C(=O)C=CC1=O)C(C)C [MI-6PEG-GGFL-Belotecan] ({Propanoyl(3-maleimido)-PEG6}-GGFL-Belotecan) ?
a: 100 mg/kg

q: Next entry: CC[C@@]1(O)C(=O)OCc2c1cc1n(c2=O)Cc2c-1nc1ccccc1c2CCN(C)C(=O)[C@H](CC(C)C)NC(=O)[C@H](Cc1ccccc1)NC(=O)CNC(=O)CNC(=O)CCOCCOCCOCCOCCOCCOCCNC(=O)CCN1C(=O)C=CC1=O [MI-6PEG-GGFL-D1] ({Propanoyl(3-maleimido)-PEG6}-GGFL-X7)
a: 120 mg/kg

----------
# Assay details: Tumor homogenate activation efficiency, ovarian cancer tissue (Examples 28, 37)
# Assay type: in vitro ADME
# Setup conditions: pH 5.0, 37° C., 2 h; Table 5
Where a SMILES comes first, the peptide text is derived from it. The star is where a group is joined. NEt(2-(20S-CPT-7-yl)ethyl) = CCN(CCc1c2c(nc3ccccc13)-c1cc3c(c(=O)n1C2)COC(=O)[C@]3(O)CC)*; Belotecan = CC[C@@]1(O)C(=O)OCc2c1cc1n(c2=O)Cc2c-1nc1ccccc1c2CCN(C(C)C)*; X8 = CC[C@@]1(O)C(=O)OCc2c1cc1n(c2=O)Cc2c-1nc1ccccc1c2CCN(C1CCCC1)*; X1 = CC[C@@]1(O)C(=O)OCc2c1cc1n(c2=O)Cc2c-1nc1ccccc1c2CCN(C1CCC1)*; X3 = CC[C@@]1(O)C(=O)OCc2c1cc1n(c2=O)Cc2c-1nc1ccccc1c2CCN(C1CC1)*; Propanoyl(3-maleimido) = O=C1C=CC(=O)N1CCC(=O)*; PEG6 = NCCOCCOCCOCCOCCOCCOCCC(=O)O
Measurement type: Percentage of release efficiency (%) Ovarian cancer tissue (A2780)
A complete answer gives the number followed by the unit.

Compound: CC[C@@]1(O)C(=O)OCc2c1cc1n(c2=O)Cc2c-1nc1ccccc1c2CCN(C(=O)CNC(=O)[C@H](Cc1ccccc1)NC(=O)CNC(=O)CNC(=O)CCOCCOCCOCCOCCOCCOCCNC(=O)CCN1C(=O)C=CC1=O)C(C)C [MI-6PEG-GGFG-Belotecan] ({Propanoyl(3-maleimido)-PEG6}-GGFG-Belotecan)
Result: 81.5%
//
Compound: CC[C@@]1(O)C(=O)OCc2c1cc1n(c2=O)Cc2c-1nc1ccccc1c2CCN(C(=O)CNC(=O)[C@H](CC(N)=O)NC(=O)[C@H](C)NC(=O)[C@H](C)NC(=O)CCOCCOCCOCCOCCOCCOCCNC(=O)CCN1C(=O)C=CC1=O)C1CC1 [MI-6PEG-AANG-D6] ({Propanoyl(3-maleimido)-PEG6}-AANG-X3)
Result: 75.9%
//
Compound: CC[C@@]1(O)C(=O)OCc2c1cc1n(c2=O)Cc2c-1nc1ccccc1c2CCN(C(=O)CNC(=O)[C@H](Cc1ccccc1)NC(=O)CNC(=O)CNC(=O)CCOCCOCCOCCOCCOCCOCCNC(=O)CCN1C(=O)C=CC1=O)C1CCCC1 [MI-6PEG-GGFG-D8] ({Propanoyl(3-maleimido)-PEG6}-GGFG-X8)
Result: 76%
//
Compound: CC[C@@]1(O)C(=O)OCc2c1cc1n(c2=O)Cc2c-1nc1ccccc1c2CCN(C(=O)CNC(=O)[C@H](CC(N)=O)NC(=O)[C@H](C)NC(=O)[C@H](C)NC(=O)CCOCCOCCOCCOCCOCCOCCNC(=O)CCN1C(=O)C=CC1=O)C1CCCC1 [MI-6PEG-AANG-D8] ({Propanoyl(3-maleimido)-PEG6}-AANG-X8)
Result: 70.1%
//
Compound: CC[C@@]1(O)C(=O)OCc2c1cc1n(c2=O)Cc2c-1nc1ccccc1c2CCN(C(=O)CNC(=O)[C@H](CC(N)=O)NC(=O)[C@H](C)NC(=O)[C@H](C)NC(=O)CCOCCOCCOCCOCCOCCOCCNC(=O)CCN1C(=O)C=CC1=O)C1CCC1 [MI-6PEG-AANG-D7] ({Propanoyl(3-maleimido)-PEG6}-AANG-X1)
Result: 84.5%

q: Using the record for CC[C@@]1(O)C(=O)OCc2c1cc1n(c2=O)Cc2c-1nc1ccccc1c2CCN(C(=O)CNC(=O)[C@H](Cc1ccccc1)NC(=O)CNC(=O)CNC(=O)CCOCCOCCOCCOCCOCCOCCNC(=O)CCN1C(=O)C=CC1=O)C1CCC1 [MI-6PEG-GGFG-D7] ({Propanoyl(3-maleimido)-PEG6}-GGFG-X1) , report its Percentage of release efficiency (%) Ovarian cancer tissue (A2780).
a: 73.6%

q: Thanks! And CCN(CCc1c2c(nc3ccccc13)-c1cc3c(c(=O)n1C2)COC(=O)[C@]3(O)CC)C(=O)CNC(=O)[C@H](CC(N)=O)NC(=O)[C@H](C)NC(=O)CNC(=O)CCOCCOCCOCCOCCOCCOCCNC(=O)CCN1C(=O)C=CC1=O [MI-6PEG-GANG-D2] ({Propanoyl(3-maleimido)-PEG6}-GANG-{NEt(2-(20S-CPT-7-yl)ethyl)}) ?
a: 69.9%

q: # repeat for CCN(CCc1c2c(nc3ccccc13)-c1cc3c(c(=O)n1C2)COC(=O)[C@]3(O)CC)C(=O)CNC(=O)[C@H](CCCCN)NC(=O)[C@H](C)NC(=O)[C@H](C)NC(=O)CCOCCOCCOCCOCCOCCOCCNC(=O)CCN1C(=O)C=CC1=O [MI-6PEG-AAKG-D2] ({Propanoyl(3-maleimido)-PEG6}-AAKG-{NEt(2-(20S-CPT-7-yl)ethyl)})
a: 85.8%
